Tested on: Caco-2
assay info: Apparent permeability from apical side to basolateral side of human Caco2 cells at 10 uM
Format: ADME, cell-based
measurement conditions: caco-2, 10 µM
readout: Papp (×10⁻⁶ cm/s)
Please reply with the bare figure in ×10⁻⁶ cm/s and do not write the unit itself.

In the examples that follow, each entry is paired with its recorded Papp.
- mol smiles: "CSc1ccc(-c2cnc(N3CCC(C(N)=O)CC3)s2)cc1"
  Papp / ×10⁻⁶ cm/s: 1.6
- mol smiles: "CC(C)Oc1cccc(-c2ccnc(N3CCC(C(N)=O)CC3)n2)c1"
  Papp / ×10⁻⁶ cm/s: 40.1
- mol smiles: "NC(=O)C1CCN(c2nnc(-c3ccc4c(c3)OCCCO4)s2)CC1"
  Papp / ×10⁻⁶ cm/s: 21.2
- mol smiles: "CC(C)Oc1cccc(-c2cnc(N3CCC(C(N)=O)CC3)s2)c1"
  Papp / ×10⁻⁶ cm/s: 6.1
- mol smiles: "O=C(O)C1CCN(c2ncc(-c3ccc4c(c3)OCCCO4)s2)CC1"
  Papp / ×10⁻⁶ cm/s: 33.8

Ask: Lab note: need Papp with Caco-2 for entry O=C(O)C1CCN(c2nc(-c3ccc(Br)cc3)cs2)CC1 , please look it up.
Reply: 32.6

Ask: Lab note: need Papp with Caco-2 for entry NC(=O)C1CCN(c2ncc(-c3ccc4c(c3)OCCCO4)s2)CC1 , please look it up.
Reply: 13.1

Ask: Lab note: need Papp with Caco-2 for entry NC(=O)C1CCN(c2nc(-c3ccc(Br)cc3)cs2)CC1 , please look it up.
Reply: 30.7

---

Below: a set of entries, each annotated with reported concentration at 8 h.
assay info: Plasma concentration in Swiss albino mouse at 30 mg/kg, po after 8 hrs
Type: ADME, organism-based
Set-up: dose 30 mg/kg, route oral
A complete answer gives the number followed by the unit.

- mol smiles: "CC(C)Oc1cccc(-c2cnc(N3CCC(C(N)=O)CC3)s2)c1"
  concentration at 8 h: "0.025 µM"

Ask: Look at this molecule and give its reported concentration at 8 h. O=C(O)C1CCN(c2ncc(-c3ccc4c(c3)OCCCO4)s2)CC1
Reply: 12.6 µM

---

Test system: Liver
assay info: Half-life in mouse liver microsome at 1 uM
Format: ADME
measurement conditions: microsomes
Mark yes (1) only when t1/2 stays strictly below 10 min. Values equal to the cut-off are no (0).

Ask: For this molecule, is t1/2 lower than 10 min? O=C(O)C1CCN(c2ncc(-c3ccc4c(c3)OCCCO4)s2)CC1
Reply: no (0)

---

Below: a set of entries, each annotated with reported Activity.
test system: Survival motor neuron protein (Homo sapiens) (UniProt Q16637)
Sequence (Q16637 whole entry): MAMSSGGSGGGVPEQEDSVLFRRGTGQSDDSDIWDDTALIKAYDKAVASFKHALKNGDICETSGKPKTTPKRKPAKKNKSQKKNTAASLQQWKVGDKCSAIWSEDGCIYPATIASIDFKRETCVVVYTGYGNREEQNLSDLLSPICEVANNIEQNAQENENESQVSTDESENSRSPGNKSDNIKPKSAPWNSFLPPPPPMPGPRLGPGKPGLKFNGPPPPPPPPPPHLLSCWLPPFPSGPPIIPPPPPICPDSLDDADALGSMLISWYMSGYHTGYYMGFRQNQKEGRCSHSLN
assay info: Activation of SMN expressed in HEK293 cells assessed as rate of induction by SMN2-promotor driven luciferase reporter gene assay relative to basal level
Assay type: cell-based
Set-up: concentration or dose not given beside the values
Please reply with the bare figure in % and do not write the unit itself.

In the examples that follow, each entry is paired with its recorded Activity.
- mol smiles: "NC(=O)C1CCN(c2ncc(-c3ccc4c(c3)OCCO4)s2)CC1"
  Activity / %: 424
- mol smiles: "NC(=O)C1CCN(c2nc(-c3ccc([N+](=O)[O-])cc3)cs2)CC1"
  Activity / %: 254
- mol smiles: "CN(C)c1cccc(-c2nccc(N3CCC(C(N)=O)CC3)n2)c1"
  Activity / %: 306
- mol smiles: "CC(=O)NC1CCN(c2nc(-c3ccc(Br)cc3)cs2)CC1"
  Activity / %: -57

Ask: Lab note: need Activity with Survival motor neuron protein (Homo sapiens) (UniProt Q16637) for entry NC(=O)C1CCN(c2ncc(-c3ccc(Cl)cc3)s2)CC1 , please look it up.
Reply: 498

Ask: Lab note: need Activity with Survival motor neuron protein (Homo sapiens) (UniProt Q16637) for entry CCOC(=O)C1CCN(c2nc(-c3ccc(Br)cc3)cs2)CC1 , please look it up.
Reply: 550

Ask: Lab note: need Activity with Survival motor neuron protein (Homo sapiens) (UniProt Q16637) for entry Cc1cccc(-c2csc(N3CCC(C(N)=O)CC3)n2)c1 , please look it up.
Reply: 187

Ask: Lab note: need Activity with Survival motor neuron protein (Homo sapiens) (UniProt Q16637) for entry NC(=O)C1CCN(c2nc(-c3ccc(F)cc3)cs2)CC1 , please look it up.
Reply: 288

Ask: Lab note: need Activity with Survival motor neuron protein (Homo sapiens) (UniProt Q16637) for entry N#CC1CCN(c2nc(-c3ccc(Br)cc3)cs2)CC1 , please look it up.
Reply: 78

Ask: Lab note: need Activity with Survival motor neuron protein (Homo sapiens) (UniProt Q16637) for entry Cc1ccc(-c2ccnc(N3CCC(C(N)=O)CC3)n2)cc1 , please look it up.
Reply: 444

Ask: Lab note: need Activity with Survival motor neuron protein (Homo sapiens) (UniProt Q16637) for entry CN(C)c1cccc(-c2nnc(N3CCC(C(N)=O)CC3)s2)c1 , please look it up.
Reply: 448

---

assay info: Plasma concentration in Swiss albino mouse at 30 mg/kg, po after 24 hrs
Format: ADME, organism-based
Parameters: dose 30 mg/kg, route oral
Below: a set of entries, each annotated with reported concentration at 24 h.
Please reply with the bare figure in nM and do not write the unit itself.

- mol smiles: "O=C(O)C1CCN(c2ncc(-c3ccc4c(c3)OCCCO4)s2)CC1"
  unit symbol: "nM"
  concentration at 24 h: 4360

Next up:
Ask: Look at this compound and give its reported concentration at 24 h. CC(C)Oc1cccc(-c2cnc(N3CCC(C(N)=O)CC3)s2)c1
Reply: 60

---

test system: Survival motor neuron protein (Homo sapiens) (UniProt Q16637)
assay info: Activation of SMN expressed in HEK293 cells assessed as concentration required to reach 50% of maximum luciferase signal by SMN2-promotor driven luciferase reporter gene assay
Format: cell-based
Active and inactive are the calls of the source. The rule behind the calls is not given here.
readout: Activity

In the examples that follow, each entry is paired with its recorded Activity.
- mol smiles: "NC(=O)C1CCN(c2nc(-c3cccc(Br)c3)cs2)CC1"
  test system: "Survival motor neuron protein (Homo sapiens) (UniProt Q16637)"
  reported value: "30.8 µM"
- mol smiles: "CN(C)c1ccccc1-c1csc(N2CCC(C(N)=O)CC2)n1"
  test system: "Survival motor neuron protein (Homo sapiens) (UniProt Q16637)"
  reported value: "inactive"
- mol smiles: "NC(=O)C1CCN(c2nc(-c3ccccc3F)cs2)CC1"
  test system: "Survival motor neuron protein (Homo sapiens) (UniProt Q16637)"
  reported value: "2.44 µM"
- mol smiles: "NC(=O)C1CCN(c2nc(-c3cccc(F)c3)cs2)CC1"
  test system: "Survival motor neuron protein (Homo sapiens) (UniProt Q16637)"
  reported value: "9.72 µM"
- mol smiles: "CN(C)c1ccc(-c2csc(N3CCC(C(N)=O)CC3)n2)cc1"
  test system: "Survival motor neuron protein (Homo sapiens) (UniProt Q16637)"
  reported value: "30.7 µM"
- mol smiles: "CS(=O)(=O)c1ccccc1-c1csc(N2CCC(C(N)=O)CC2)n1"
  test system: "Survival motor neuron protein (Homo sapiens) (UniProt Q16637)"
  reported value: "inactive"
- mol smiles: "CC(C)Oc1cccc(-c2csc(N3CCC(C(N)=O)CC3)n2)c1"
  test system: "Survival motor neuron protein (Homo sapiens) (UniProt Q16637)"
  reported value: "0.77 µM"
- mol smiles: "NC(=O)C1CCN(c2nc(-c3ccc4ccccc4c3)cs2)CC1"
  test system: "Survival motor neuron protein (Homo sapiens) (UniProt Q16637)"
  reported value: "7.72 µM"

Ask: Look at this compound and give its reported Activity. O=C(Nc1ccccc1)C1CCN(c2nc(-c3ccc(Br)cc3)cs2)CC1
Reply: 2.44 µM

Ask: Look at this compound and give its reported Activity. CN(C)C(=O)c1ccc(-c2csc(N3CCC(C(N)=O)CC3)n2)cc1
Reply: 12.2 µM

Ask: Look at this compound and give its reported Activity. O=C(Nc1ccccc1)C1CCN(c2ncc(-c3ccc4c(c3)OCCCO4)s2)CC1
Reply: 0.049 µM

Ask: Look at this compound and give its reported Activity. CN(C)c1cccc(-c2ncc(F)c(N3CCC(C(N)=O)CC3)n2)c1
Reply: 3.07 µM

Ask: Look at this compound and give its reported Activity. COc1ccc(-c2csc(N3CCC(C(N)=O)CC3)n2)cc1OC
Reply: 12.2 µM

---

assay info: Plasma protein binding in Swiss albino mouse at 30 mg/kg, po
Format: ADME, organism-based
Parameters: dose 30 mg/kg, route oral
measurement conditions: read-out: PPB (converted)
readout: fraction unbound

Ask: Look at this compound and give its reported fraction unbound. O=C(O)C1CCN(c2ncc(-c3ccc4c(c3)OCCCO4)s2)CC1
Reply: 0.051

---

assay info: Plasma concentration in Swiss albino mouse at 30 mg/kg, po after 12 hrs
Format: ADME, organism-based
Parameters: dose 30 mg/kg, route oral
readout: concentration at 12 h (nM)
Please reply with the bare figure in nM and do not write the unit itself.

- mol smiles: "CC(C)Oc1cccc(-c2cnc(N3CCC(C(N)=O)CC3)s2)c1"
  unit symbol: "nM"
  concentration at 12 h: 19

Ask: Look at this molecule and give its reported concentration at 12 h. O=C(O)C1CCN(c2ncc(-c3ccc4c(c3)OCCCO4)s2)CC1
Reply: 4570
